Provide the reported relative activity of each item.
# study_target: glucagon receptor (UniProt P47871 26-477, limits assumed)
# Sequence (P47871 26-477 limits assumed): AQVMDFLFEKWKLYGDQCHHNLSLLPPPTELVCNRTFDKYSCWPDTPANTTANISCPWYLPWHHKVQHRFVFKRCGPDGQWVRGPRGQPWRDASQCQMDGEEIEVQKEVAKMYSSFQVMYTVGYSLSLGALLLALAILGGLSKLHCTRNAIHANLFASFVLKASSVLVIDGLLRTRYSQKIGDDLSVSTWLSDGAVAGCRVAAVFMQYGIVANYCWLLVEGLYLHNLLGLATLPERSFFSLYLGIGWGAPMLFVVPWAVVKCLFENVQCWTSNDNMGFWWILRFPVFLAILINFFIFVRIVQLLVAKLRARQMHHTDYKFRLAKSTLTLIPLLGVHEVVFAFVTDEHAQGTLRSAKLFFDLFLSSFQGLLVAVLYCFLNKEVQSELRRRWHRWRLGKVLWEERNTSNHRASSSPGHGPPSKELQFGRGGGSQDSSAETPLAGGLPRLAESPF
# assay_overview: cell-based or functional assay
Where no end group is shown, it is not given here. [ ]: non-standard residue; d: D form. Aib = CC(C)(N)C(=O)O
# output: bare number, implied unit %

Exam item: Give the measured relative activity of Y[Aib]EGTFISDYSIAMDKIHQQDFVCWLLAQKGKKNWLKHNITQ-NH2 [mt-102] .
Marked response: 0.02

Exam item: Looking for the measured relative activity of YSQGTFTSDYSKYLDEIHQKDFVNWLLAGGPSSGAPPPS-NH2 [mt-116] , can you help?
Marked response: 18.7

Exam item: I would be grateful if you could share the reported relative activity for YSQGTFTSDYSKYLDEIHQKEFVNWLLAQ-NH2 [mt-118] .
Marked response: 125

Exam item: Bench note: what relative activity did YSQGTFTSDYSKYLDEIHQKDFVNWLLAQ-NH2 [mt-109] show?
Marked response: 76.9

Exam item: Which relative activity reading was recorded for the binder YAEGTFISDYSIAMDKIHQQDFVNWLLAQ-NH2 [mt-106] ?
Marked response: 0.11

Exam item: Item YXEGTFISDYSIAMDKIHQQDFVNWLLAQKGKKNWLKHNITQ (C-terminal amide) [mt-100] has what recorded relative activity?
Marked response: 0.01

Exam item: Entry YAEGTFISDYSIAMDKIHQQDFVNWLLAQKGKKNWLKHNITQ-NH2 [mt-99] has what relative activity?
Marked response: 0

Exam item: Quick one: relative activity for HSQGTFTSDYSKYLDEIHQKEFIAWLLAQ-NH2 [mt-66] ?
Marked response: 13
